Test system: Phosphodiesterase 4 (Homo sapiens, UniProt P27815+Q08499+Q07343+Q08493)
Format: protein assay
Measured attribute: Ki (nM)

Example results:
Chemical structure | Display unit | Test value
Cc1noc(C)c1Cn1cc(C)c2ccc(C(=O)Nc3c(Cl)c[n+]([O-])cc3Cl)cc21 | nM | 225
Cc1cn(Cc2nccn2Cc2ccccc2)c2cc(C(=O)Nc3c(Cl)c[n+]([O-])cc3Cl)ccc12 | nM | 393
Cc1cn(C2CCCCC2)c2cc(C(=O)Nc3c(Cl)c[n+]([O-])cc3Cl)ccc12 | nM | 38
Cc1cn(Cc2ccc(C(=O)O)cc2)c2cc(C(=O)Nc3c(Cl)c[n+]([O-])cc3Cl)ccc12 | nM | 3184
Cc1cn(CCC2CCCCC2)c2cc(C(=O)Nc3c(Cl)c[n+]([O-])cc3Cl)ccc12 | nM | 12
Cc1cn(CC(C)C)c2cc(C(=O)Nc3c(Cl)c[n+]([O-])cc3Cl)ccc12 | nM | 116
Cc1cn(CCCC2CCCCC2)c2cc(C(=O)Nc3c(Cl)c[n+]([O-])cc3Cl)ccc12 | nM | 67
Cc1nc(Cn2cc(C)c3ccc(C(=O)Nc4c(Cl)c[n+]([O-])cc4Cl)cc32)cs1 | nM | 64
Cc1cn(Cc2ccc3c(c2)OCO3)c2cc(C(=O)Nc3c(Cl)c[n+]([O-])cc3Cl)ccc12 | nM | 86
Cc1cn(CCCCc2ccccc2)c2cc(C(=O)Nc3c(Cl)c[n+]([O-])cc3Cl)ccc12 | nM | 135

A = Cc1cn(Cc2ccc3ccccc3c2)c2cc(C(=O)Nc3c(Cl)c[n+]([O-])cc3Cl)ccc12
B = Cc1cn(CCCc2ccccc2)c2cc(C(=O)Nc3c(Cl)c[n+]([O-])cc3Cl)ccc12
C = Cc1cn(CC2CCCCC2)c2cc(C(=O)Nc3c(Cl)c[n+]([O-])cc3Cl)ccc12
Prompt: Put the items in sequence by Ki, from largest down. Give the order by naming the labels one after another as requested.
Completion: C, A, B
(C: 86 nM, A: 51 nM, B: 30 nM)
